# methodSummary: In vivo pharmacokinetic experiment in CD-1 mice
# conditionParameters: mouse, plasma; Oral administration (10 mg/kg), CD-1 female mice
Overview of recorded half-life for various compounds
Enter your answer as a number in h; do not include the unit.

compound: Cc1nc2ccc(CN3CCN(c4ccc(C(=O)NC5CC5)nc4F)CC3)c(F)c2[nH]c1=O
half-life / h: 3.8
//
compound: CNC(=O)c1ccc(N2CCN(Cc3ccc4nc(C)c(=O)[nH]c4c3F)CC2)c(F)n1 [AZD9574, reference compound]
half-life / h: 4.37

Query: Record request: half-life value, item Cc1nc2ccc(CN3CCN(c4ccc(C(=O)N[C@@H]5C[C@@H]5F)nc4F)CC3)cc2[nH]c1=O
Response: 1.71

Query: Record request: half-life value, item Cc1nc2ccc(CN3CCN(c4ccc(C(=O)NC5CC5)nc4F)CC3)cc2[nH]c1=O
Response: 1.89

Query: Record request: half-life value, item Cc1nc2ccc(CN3CCN(c4ccc(C(=O)N[C@H]5C[C@H]5F)nc4F)CC3)cc2[nH]c1=O
Response: 2.08

All figures here come from patent US20260265221A1.
